The reported numbers originate from patent US12180215B2.

EXPERIMENTAL SYSTEM: JAK3 (Homo sapiens)
Sequence (P52333 781-1124 limits assumed): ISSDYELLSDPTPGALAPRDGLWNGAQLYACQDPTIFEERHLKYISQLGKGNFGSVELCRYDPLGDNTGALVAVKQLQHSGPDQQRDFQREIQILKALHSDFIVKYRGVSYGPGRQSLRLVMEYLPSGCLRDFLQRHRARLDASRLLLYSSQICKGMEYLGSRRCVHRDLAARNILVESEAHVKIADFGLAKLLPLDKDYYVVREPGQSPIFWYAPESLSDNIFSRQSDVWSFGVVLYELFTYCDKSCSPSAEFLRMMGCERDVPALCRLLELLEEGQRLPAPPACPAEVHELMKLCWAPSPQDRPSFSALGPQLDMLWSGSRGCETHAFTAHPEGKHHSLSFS
EXPERIMENTAL PROTOCOL: JAK3 kinase ADP-Glo assay (Example 59)
Assay type: biochemical
Set-up: purchased Invitrogen PV3855
EXPERIMENTAL SETUP: JAK3 (Invitrogen) 0.5 nM, ATP 10 μM, Poly (4:1 Glu, Tyr) 0.03 mg/mL, 25° C. 60 min, read-out: IC50 (nM), JAK3 Experiment
ASSAY READOUT: IC50 (nM)

compound=CCc1cc(O)c(F)cc1-c1ccc2c(-c3nc4c([nH]3)CN(C(=O)c3cnc(N5CCCCC5)cn3)C4)n[nH]c2c1 experimental_system="JAK3 (Homo sapiens)" assay_readout=IC50 output_unit=nM observed=0.765
compound=CCc1cc(O)c(F)cc1-c1ccc2c(-c3nc4c([nH]3)CN(S(=O)(=O)c3ccccc3)C4)n[nH]c2c1 experimental_system="JAK3 (Homo sapiens)" assay_readout=IC50 output_unit=nM observed=0.628
compound=CCc1cc(O)ccc1-c1ccc2c(-c3nc4c([nH]3)CN(C(=O)c3cnc(N5CCN(C)CC5)cn3)C4)n[nH]c2c1 experimental_system="JAK3 (Homo sapiens)" assay_readout=IC50 output_unit=nM observed=0.178
compound=CCc1cc(O)c(F)cc1-c1ccc2c(-c3nc4c([nH]3)CN(C(=O)C3CC3)C4)n[nH]c2c1 experimental_system="JAK3 (Homo sapiens)" assay_readout=IC50 output_unit=nM observed=0.158
compound="CCc1cc(O)c(F)cc1-c1ccc2c(-c3nc4c([nH]3)CN(C(=O)C3CC(O)C3)C4)n[nH]c2c1 (stereo not drawn)" experimental_system="JAK3 (Homo sapiens)" assay_readout=IC50 output_unit=nM observed=0.116

(P) CCc1cc(O)c(F)cc1-c1ccc2c(-c3nc4c([nH]3)CN(C(=O)c3cnn(C)c3)C4)n[nH]c2c1
(Q) CCc1cc(O)c(F)cc1-c1ccc2c(-c3nc4c([nH]3)CN(C(=O)c3cnc(N5CCN(C)CC5)cn3)C4)n[nH]c2c1
Min IC50? P | Q Your answer should be the label attached to the chosen record.
P
(P: 0.16 nM, Q: 0.238 nM)

(1) CCc1cc(O)c(F)cc1-c1ccc2c(-c3nc4c([nH]3)CN(C(=O)C3CCN(C)CC3)C4)n[nH]c2c1
(2) CCc1cc(O)c(F)cc1-c1ccc2c(-c3nc4c([nH]3)CN(C3CCC(O)CC3)C4)n[nH]c2c1 (stereo not drawn)
Hi! Which is lower in terms of IC50, the first one 1 or the second one 2 ? In your reply, give the label of the chosen option.
2
